Data origin, for the record: patent US11566007B2

# Test system: NCI-H358 (K-Ras G12C)
# ASSAY_COMMENT: CellTiter-Glo cell viability assay, NCI-H358
# Type: cell-based, human
# EXPERIMENTAL_CONDITIONS: Homo sapiens, NCI-H358, 120 h, NCI-H358, 5-day treatment; class symbols; read-out: Additional H358 Cell Viability assay data (K-Ras G12C, IC50)
MEASURED_ATTRIBUTE: IC50

Request: Would you mind telling me what IC50 value was observed for C=CC(=O)N1CC[C@H](C(=O)N(C)[C@H](C(=O)N[C@H]2Cc3cc(O)cc(c3)-c3ccc4c(c3)c(c(-c3c(CCOC)cccc3OC)n4CC)CC(C)(C)COC(=O)[C@@H]3CCCN(N3)C2=O)C(C)C)C1 [Example A80] ?
Response: 0.1 to 1 µM

Request: What value of IC50 has been reported for the following molecule? CCn1c(-c2cccnc2[C@H](C)OC)c2c3cc(ccc31)-c1csc(n1)C[C@H](NC(=O)[C@H](C(C)C)N(C)C(=O)N1CC(N(C)C(=O)/C=C/CN(C)C)C1)C(=O)N1CCC[C@H](N1)C(=O)OCC(C)(C)C2 (atropisomer, axis not shown) [Example A710]
Response: 0.01 to 0.1 µM

Request: Given the entry CCn1c(-c2cccnc2[C@H](C)OC)c2c3cc(ccc31)-c1cc(O)cc(c1)C[C@H](NC(=O)[C@H](C(C)C)N(C)C(=O)[C@H]1CCN(C(=O)C#CCOC)C1)C(=O)N1CCC[C@H](N1)C(=O)OCC(C)(C)C2 [Example A266] , report its measured IC50.
Response: < 0.01 µM

Request: What value of IC50 has been recorded for this entry: C=CC(=O)N1CC[C@@]2(CCN([C@H](C(=O)N[C@H]3Cc4cc(O)cc(c4)-c4ccc5c(c4)c(c(-c4ccccc4CCOC)n5CC)CC(C)(C)COC(=O)[C@@H]4CCCN(N4)C3=O)C(C)C)C2=O)C1 [Example A68]
Response: 0.1 to 1 µM

Request: What measured IC50 goes with C=CC(=O)N1CC[C@H](C(=O)N(C)[C@H](C(=O)N[C@H]2Cc3cc(O)cc(c3)-c3ccc4c(c3)c(c(-c3ccc(CN(C)C)cc3COC)n4CC)CC(C)(C)COC(=O)[C@@H]3CCCN(N3)C2=O)C(C)C)C1 [Example A51] ?
Response: 0.01 to 0.1 µM

Request: Which IC50 value is on record for C=CC(=O)N1CCC(C(=O)N(C)[C@H](C(=O)N[C@H]2CCC(=O)N(C)Cc3ccc4c(c3)c(c(-c3cccnc3[C@H](C)OC)n4CC)CC(C)(C)COC(=O)[C@@H]3CCCN(N3)C2=O)C(C)C)C1 (atropisomer, axis not shown) [Example A500] ?
Response: > 1 µM

Request: Item CO[C@@H](C)c1ncccc1-c1c2c3cc(ccc3n1CC(F)(F)F)-c1cc(cc(C(F)F)c1)C[C@H](NC(=O)[C@@H](COC1CN(C(=O)C#CC(C)(C)N(C)C)C1)C(C)C)C(=O)N1CCC[C@H](N1)C(=O)OCC(C)(C)C2 (atropisomer, axis not shown) [Example A374] has what recorded IC50?
Response: 0.01 to 0.1 µM

Request: // IC50 lookup, key: C=CC(=O)N1CCC(C(=O)N(C)[C@H](C(=O)N[C@H]2Cc3cc(O)cc(c3)-c3ccc4c(c3)c(c(-c3ccccc3CCOC)n4CC)CC(C)(C)c3coc(n3)[C@@H]3CCCN(N3)C2=O)C(C)C)C1 (single isomer, unassigned) [Example A231]
Response: > 1 µM

Request: Look up IC50 for this molecule: CCn1c(-c2cccnc2[C@H](C)OC)c2c3cc(ccc31)-c1cc(CF)cc(c1)C[C@H](NC(=O)[C@H](C(C)C)N(C)C(=O)[C@H]1CCN(C(=O)C#CC(C)(C)N(C)C)C1)C(=O)N1CCC[C@H](N1)C(=O)OCC(C)(C)C2 (atropisomer, axis not shown) [Example A658]
Response: < 0.01 µM

Request: Sample C=CC(=O)N1CCC(F)(C(=O)N(C)[C@H](C(=O)N[C@H]2Cc3cc(O)cc(c3)-c3ccc4c(c3)c(c(-c3ccccc3CCOC)n4CC)CC(C)(C)COC(=O)[C@@H]3CCCN(N3)C2=O)C(C)C)CC1 [Example A11] — what was its IC50?
Response: 0.1 to 1 µM

====

# TEST_TARGET: KRAS G12S (Homo sapiens (Human), UniProt P01116+P62937, G12S)
# Sequence (P01116-2 other isoform, or with tags, fused parts or gaps G12S): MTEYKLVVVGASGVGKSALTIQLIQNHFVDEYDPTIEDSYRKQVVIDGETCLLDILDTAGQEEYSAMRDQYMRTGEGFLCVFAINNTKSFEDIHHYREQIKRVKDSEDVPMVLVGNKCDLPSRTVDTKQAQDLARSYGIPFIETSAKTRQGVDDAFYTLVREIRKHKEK
# Sequence (P62937 whole entry): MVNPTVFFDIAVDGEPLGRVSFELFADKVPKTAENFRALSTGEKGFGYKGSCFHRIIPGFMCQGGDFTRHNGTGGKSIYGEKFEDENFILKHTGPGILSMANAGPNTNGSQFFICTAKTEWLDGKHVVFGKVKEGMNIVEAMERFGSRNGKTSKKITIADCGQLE
# ASSAY_COMMENT: Ras-Raf (BRAF RBD) disruption / FRET / MOA assay, KRAS G12S
# Format: biochemical
# EXPERIMENTAL_CONDITIONS: Ras-Raf disruption/FRET/MOA assay; class symbols; read-out: KRAS G12S FRET data IC50
Please respond with reported IC50 for every item in the list.

Request: Quick check: IC50 of C=CC(=O)N1CCN(C(=O)N(C)[C@H](C(=O)N[C@H]2Cc3nc(cs3)-c3ccc4c(c3)c(c(-c3cccnc3[C@H](C)OC)n4CC)CC(C)(C)COC(=O)[C@@H]3CCCN(N3)C2=O)C(C)C)C[C@H]1C (atropisomer, axis not shown) [Example A432] ?
Response: 0.1 to 1 µM

Request: Which measured IC50 value corresponds to CCn1c(-c2cccnc2[C@H](C)OC)c2c3cc(ccc31)-c1nc(co1)C[C@H](NC(=O)[C@@H](COC1CN(C(=O)C#CC(C)(C)N(C)C)C1)C(C)C)C(=O)N1CCC[C@H](N1)C(=O)OCC(C)(C)C2 (atropisomer, axis not shown) [Example A675] ?
Response: > 10 µM

Request: For C=CC(=O)N1CC(OCC(C(=O)N[C@H]2Cc3cc(cc(C(F)F)c3)-c3ccc4c(c3)c(c(-c3cccnc3[C@H](C)OC)n4CC(F)(F)F)CC(C)(C)COC(=O)[C@@H]3CCCN(N3)C2=O)C(C)C)C1 (mixture of isomers) [Example A428] , what is its reported IC50?
Response: > 10 µM

Request: Recorded IC50 for C=CC(=O)N(C)CCN1CCN(C(=O)N(C)[C@H](C(=O)N[C@H]2Cc3cccc(c3)-c3ccc4c(c3)c(c(-c3cccnc3[C@H](C)OC)n4CC)CC(C)(C)COC(=O)[C@@H]3CCCN(N3)C2=O)C(C)C)C[C@@H]1C (atropisomer, axis not shown) [Example A570] , please?
Response: 0.1 to 1 µM

Request: // lookup IC50 for C=CC(=O)N1CC[C@H](C(=O)N(C)[C@H](C(=O)N(C)[C@H]2Cc3cc(O)cc(c3)-c3ccc4c(c3)c(c(-c3cccnc3COC)n4CC)CC(C)(C)COC(=O)[C@@H]3CCCN(N3)C2=O)C(C)C)C1 [Example A230]
Response: > 10 µM

Request: What does the data say about its IC50? Entry: C=CC(=O)N1CC[C@H](C(=O)N(C)[C@H](C(=O)N[C@H]2Cc3cc(O)cc(c3)-c3ccc4c(c3)c(c(-c3cccnc3COC)n4CC)CC(C)(C)COC(=O)[C@@H]3CCCN(N3)C2=O)C2CCCC2)C1 [Example A055]
Response: 0.1 to 1 µM

====

# TEST_TARGET: NRAS G12C (Homo sapiens (Human), UniProt P01111+P62937, G12C)
# Sequence (P01111 whole entry G12C, one chain of several): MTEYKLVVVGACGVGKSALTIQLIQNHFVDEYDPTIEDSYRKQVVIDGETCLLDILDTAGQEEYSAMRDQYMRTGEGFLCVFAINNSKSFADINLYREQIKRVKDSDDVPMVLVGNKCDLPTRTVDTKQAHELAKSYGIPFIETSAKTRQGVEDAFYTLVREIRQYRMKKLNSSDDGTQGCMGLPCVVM
# ASSAY_COMMENT: Ras-Raf (BRAF RBD) disruption / FRET / MOA assay, NRAS G12C
# Format: biochemical
# EXPERIMENTAL_CONDITIONS: IC50* NRAS G12C FRET data
Please provide measured IC50 for the entries that follow.

Request: Quick one: IC50 for C=CC(=O)N1CCO[C@H]2CN(C(=O)N(C)[C@H](C(=O)N[C@H]3Cc4cc(C(F)F)cc(n4)-c4ccc5c(c4)c(c(-c4cccnc4[C@H](C)OC)n5CC(F)(F)F)CC(C)(C)COC(=O)[C@@H]4CCCN(N4)C3=O)C(C)C)C[C@H]21 (atropisomer, axis not shown) ?
Response: 100 to 1000 nM

Request: What value of IC50 has been recorded for this entry: C=CC(=O)N1CC(CN2C(=O)O[C@H](C)[C@H]2C(=O)N[C@H]2Cc3cccc(c3)-c3ccc4c(c3)c(c(-c3cccnc3[C@H](C)OC)n4CC)CC(C)(C)COC(=O)[C@@H]3CCCN(N3)C2=O)C1 (atropisomer, axis not shown)
Response: 1000 to 10000 nM

Request: Give the measured IC50 of C=CC(=O)N1CC[C@H](C(=O)N(C)[C@H](C(=O)N[C@H]2Cc3cc(O)cc(c3)-c3ccc4c(c3)c(c(-c3ncn(C)c3[C@H](C)OC)n4CC)CC(C)(C)COC(=O)[C@@H]3CCCN(N3)C2=O)C(C)C)C1 .
Response: 100 to 1000 nM

====

# TEST_TARGET: KRAS G12D (Homo sapiens (Human), UniProt P01116+P62937, G12D)
# Sequence (P01116-2 other isoform, or with tags, fused parts or gaps G12D): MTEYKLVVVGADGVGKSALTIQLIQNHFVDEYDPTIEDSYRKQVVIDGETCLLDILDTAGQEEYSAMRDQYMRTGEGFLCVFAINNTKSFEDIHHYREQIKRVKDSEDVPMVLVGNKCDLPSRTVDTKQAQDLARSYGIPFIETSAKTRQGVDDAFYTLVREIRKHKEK
# Sequence (P62937 whole entry): as the sequence (P62937 whole entry) above
# ASSAY_COMMENT: Ras-Raf (BRAF RBD) disruption / FRET / MOA assay, KRAS G12D
# Type: biochemical
# EXPERIMENTAL_CONDITIONS: Ras-Raf disruption/FRET/MOA assay; class symbols; read-out: KRAS G12D FRET data IC50
# Procedure: The purpose of this biochemical assay is to measure the ability of test compounds to facilitate ternary complex formation between a nucleotide-loaded Ras isoform and cyclophilin A; the resulting ternary complex disrupts binding to a BRAF^RBD construct, inhibiting Ras signaling through a RAF effector. Compound is present in plate wells as a 10-point 3-fold dilution series starting at a final concentration of 30 μM. […]
MEASURED_ATTRIBUTE: IC50

Request: Form entry - test system: KRAS G12D (Homo sapiens (Human), UniProt P01116+P62937, G12D); read-out: IC50; compound: C=CC(=O)N1CC[C@H](C(=O)N(C)[C@H](C(=O)N[C@H]2Cc3cccc(c3)-c3ccc4c(c3)c(c(-c3cnn(C)c3CN(C)C)n4CC)CC(C)(C)COC(=O)[C@@H]3CCCN(N3)C2=O)C(C)C)C1 (relative stereo)
Response: > 10 µM

Request: Checklist item: IC50 tested on KRAS G12D (Homo sapiens (Human), UniProt P01116+P62937, G12D), entry C=CC(=O)N1CC[C@]2(CCCN([C@H](C(=O)N[C@H]3Cc4cc(O)cc(c4)-c4ccc5c(c4)c(c(-c4ccccc4CCOC)n5CC)CC(C)(C)COC(=O)[C@@H]4CCCN(N4)C3=O)C(C)C)C2=O)C1 , value?
Response: > 10 µM

Request: I'm curious: which IC50 was measured for CO[C@@H](C)c1ncccc1-c1c2c3cc(ccc3n1CC(F)(F)F)-c1nc(cs1)C[C@H](NC(=O)[C@H](C(C)C)N(C)C(=O)[C@H]1CCN(C(=O)C#CC(C)(C)N3CCC3)C1)C(=O)N1CCC[C@H](N1)C(=O)OCC(C)(C)C2 (atropisomer, axis not shown) tested on KRAS G12D (Homo sapiens (Human), UniProt P01116+P62937, G12D)?
Response: 1 to 10 µM

Request: Item: CO[C@@H](C)c1ncccc1-c1c2c3cc(ccc3n1CC(F)(F)F)-c1csc(n1)C[C@H](NC(=O)[C@H](C(C)C)N(C)C(=O)N1C[C@@H]3OCCN(C(=O)/C=C/CN(C)C)[C@@H]3C1)C(=O)N1CCC[C@H](N1)C(=O)OCC(C)(C)C2 (atropisomer, axis not shown) Test system: KRAS G12D (Homo sapiens (Human), UniProt P01116+P62937, G12D) Read-out: IC50 Value: ?
Response: 1 to 10 µM

Request: For KRAS G12D (Homo sapiens (Human), UniProt P01116+P62937, G12D), provide IC50 of C=CC(=O)N1CC(OCC(C(=O)N[C@H]2Cc3cccc(c3)-c3ccc4c(c3)c(c(-c3cccnc3[C@H](C)OC)n4CC)CC(C)(C)COC(=O)[C@@H]3CCCN(N3)C2=O)C(C)C)C1 (stereo partly shown) [Example A483] please.
Response: > 10 µM

Request: Request - read-out IC50 | tested on KRAS G12D (Homo sapiens (Human), UniProt P01116+P62937, G12D) | compound C=CC(=O)N1CC[C@H](C(=O)N(C)[C@H](C(=O)N[C@H]2Cc3cc(O)cc(c3)-c3ccc4c(c3)c(c(-c3cccnc3[C@@H](OC)C3CC3)n4CC)CC(C)(C)COC(=O)[C@@H]3CCCN(N3)C2=O)C(C)C)C1 (atropisomer, axis not shown) [Example A207]
Response: 1 to 10 µM

Request: // map C=CC(=O)N1CC2(CCN2C(=O)N(C)[C@H](C(=O)N[C@H]2Cc3nc(cs3)-c3ccc4c(c3)c(c(-c3cccnc3[C@H](C)OC)n4CC)CC(C)(C)COC(=O)[C@@H]3CCCN(N3)C2=O)C(C)C)C1 (atropisomer, axis not shown) to recorded IC50 (system: KRAS G12D (Homo sapiens (Human), UniProt P01116+P62937, G12D))
Response: 0.1 to 1 µM
